Ref: patent US6476027B1

- SYSTEM_UNDER_TEST: recombinant human MMP-1 (Homo sapiens)
- EXPERIMENT_SUMMARY: In vitro metalloprotease inhibition, fluorogenic MCA peptide substrate
- RUN_PARAMETERS: room temperature, pH 7.5, 4 μM substrate, APMA-activated enzyme
pIC50: −log10 of the molar value. Counter-ions that a name gives are not always drawn.
pIC50 for assorted compounds

                                   compound  property   val
0  CC(C)(CS(=O)(=O)c1ccc(Oc2ccccc2)cc1)[C@H](O)C(=O)NO     pIC50  5.20

Request: Write down the reported pIC50 of CC(C)(CS(=O)(=O)c1ccc(Oc2ccccc2)cc1)[C@@H](O)C(=O)NO , test system: recombinant human MMP-1 (Homo sapiens).
Result: < 5.00

Request: Write down the reported pIC50 of CC(C)(CS(=O)(=O)c1ccc(Oc2ccccc2)cc1)[C@H](NC(=O)CN1CCOCC1)C(=O)NO [Example 13a, Monohydrochloride] , test system: recombinant human MMP-1 (Homo sapiens).
Result: 5.74

Request: Write down the reported pIC50 of CC(C)(CS(=O)(=O)c1ccc(Oc2ccccc2)cc1)[C@H](NC(=O)CN1CCCC1)C(=O)NO , test system: recombinant human MMP-1 (Homo sapiens).
Result: < 5.00

---

As an illustration, consider measured IC50 for compounds on UniProt P08253.
Sequence (P08253 110-660, species assumed): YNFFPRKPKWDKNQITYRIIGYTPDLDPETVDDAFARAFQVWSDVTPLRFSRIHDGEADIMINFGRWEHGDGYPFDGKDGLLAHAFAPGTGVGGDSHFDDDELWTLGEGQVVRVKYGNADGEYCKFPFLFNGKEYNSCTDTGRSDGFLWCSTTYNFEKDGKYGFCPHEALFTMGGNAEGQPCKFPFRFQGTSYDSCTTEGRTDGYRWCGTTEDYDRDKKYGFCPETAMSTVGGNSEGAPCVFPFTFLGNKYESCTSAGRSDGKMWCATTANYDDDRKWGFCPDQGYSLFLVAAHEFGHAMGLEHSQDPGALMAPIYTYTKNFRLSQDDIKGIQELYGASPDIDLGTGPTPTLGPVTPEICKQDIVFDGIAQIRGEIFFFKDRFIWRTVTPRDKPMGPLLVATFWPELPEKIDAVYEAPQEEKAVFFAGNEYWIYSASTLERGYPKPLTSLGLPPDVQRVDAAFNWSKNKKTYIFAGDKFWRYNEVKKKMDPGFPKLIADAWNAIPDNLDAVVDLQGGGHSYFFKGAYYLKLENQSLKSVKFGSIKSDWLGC
Structures can show the parent of a compound that is named as a salt.
API: value field is a number in nM; no unit string.

>>> print(df.to_string())
                                   compound   val
0  CC(C)(CCS(=O)(=O)c1ccc(Oc2ccccc2)cc1)C(=O)NO [Example 3]  1000
1  CC(C)(CS(=O)(=O)c1ccc(Oc2ccccc2)cc1)[C@H](OCc1ccncc1)C(=O)NO [Example 9a]   1.3

Request: Write down the reported IC50 of CC(CCS(=O)(=O)c1ccc(Oc2ccccc2)cc1)C(=O)NO (stereo not shown) [Example 5] , test system: UniProt P08253.
Result: 3.2

Request: Write down the reported IC50 of CC(C)(CS(=O)(=O)c1ccc(Oc2ccccc2)cc1)[C@H](OCc1ccccn1)C(=O)NO [Example 10] , test system: UniProt P08253.
Result: 1.5

Request: Write down the reported IC50 of CC(C)(CS(=O)(=O)c1ccc(Oc2ccccc2)cc1)[C@H](NC(=O)CN1CCOCC1)C(=O)NO [Example 13a, Monohydrochloride] , test system: UniProt P08253.
Result: 0.6

Request: Write down the reported IC50 of O=C(NO)C(O)CCS(=O)(=O)c1ccc(Oc2ccccc2)cc1 (stereo not shown) [Example 4] , test system: UniProt P08253.
Result: 15.8

---

- SYSTEM_UNDER_TEST: recombinant human MMP-1 (Homo sapiens, UniProt P03956)
- Sequence (P03956 100-469): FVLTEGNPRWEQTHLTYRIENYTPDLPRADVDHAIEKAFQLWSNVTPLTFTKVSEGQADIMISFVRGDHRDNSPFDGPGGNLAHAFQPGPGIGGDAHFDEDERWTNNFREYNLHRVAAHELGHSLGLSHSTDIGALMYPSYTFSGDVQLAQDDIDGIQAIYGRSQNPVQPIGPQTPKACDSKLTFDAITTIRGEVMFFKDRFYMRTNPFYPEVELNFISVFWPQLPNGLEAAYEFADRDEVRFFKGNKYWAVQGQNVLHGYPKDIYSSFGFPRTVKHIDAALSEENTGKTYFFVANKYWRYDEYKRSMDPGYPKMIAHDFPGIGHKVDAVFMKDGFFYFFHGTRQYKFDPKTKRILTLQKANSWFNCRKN
- EXPERIMENT_SUMMARY: In vitro metalloprotease inhibition, fluorogenic MCA peptide substrate
- RUN_PARAMETERS: room temperature, pH 7.5, 4 μM substrate, APMA-activated enzyme
PROPERTY: IC50

In the examples that follow, each entry is paired with its recorded IC50.
                                   compound  property      val
0  Cc1ccc(Oc2ccc(S(=O)(=O)CCC(O)C(=O)NO)cc2)cc1C (racemic)      IC50  > 10 µM
1  CC(CCS(=O)(=O)c1ccc(Oc2ccccc2)cc1)C(=O)NO (stereo not drawn)      IC50  > 10 µM
2  CC(C)(C)OC(=O)N[C@H](C(=O)NO)C(C)(C)CS(=O)(=O)c1ccc(Oc2ccccc2)cc1      IC50  0.05 µM
3  CC(C)(CS(=O)(=O)c1ccc(Oc2ccccc2)cc1)[C@H](N)C(=O)NO      IC50   3.3 µM
4  CC(C)(CS(=O)(=O)c1ccc(Oc2ccccc2)cc1)[C@H](OCc1cccnc1)C(=O)NO      IC50  > 10 µM
5  CC(C)(CS(=O)(=O)c1ccc(Oc2ccccc2)cc1)[C@H](OCc1ccncc1)C(=O)NO      IC50     7 µM
6  O=C(NO)C1(CCS(=O)(=O)c2ccc(Oc3ccccc3)cc2)CCNCC1      IC50  > 10 µM
7  O=C(NO)C(O)CCS(=O)(=O)c1ccc(Oc2ccccc2)cc1 (stereo not drawn)      IC50  > 10 µM
8  CC(C)(CS(=O)(=O)c1ccc(Oc2ccccc2)cc1)[C@H](NC(=O)CN1CCOCC1)C(=O)NO [Example 13]      IC50  0.77 µM
9  CC(C)(C)OC(=O)N1CCC(CCS(=O)(=O)c2ccc(Oc3ccccc3)cc2)(C(=O)NO)CC1      IC50  > 10 µM

Request: Write down the reported IC50 of CC(C)(CCS(=O)(=O)c1ccc(Oc2ccccc2)cc1)C(=O)NO , test system: recombinant human MMP-1 (Homo sapiens, UniProt P03956).
Result: > 10 µM

Request: Write down the reported IC50 of O=C(NO)C(CCS(=O)(=O)c1ccc(Oc2ccccc2)cc1)N1CCCCC1 (stereo not drawn) , test system: recombinant human MMP-1 (Homo sapiens, UniProt P03956).
Result: > 10 µM
